Measurement target: Amine oxidase [flavin-containing] B (Homo sapiens)
Sequence (P27338 whole entry): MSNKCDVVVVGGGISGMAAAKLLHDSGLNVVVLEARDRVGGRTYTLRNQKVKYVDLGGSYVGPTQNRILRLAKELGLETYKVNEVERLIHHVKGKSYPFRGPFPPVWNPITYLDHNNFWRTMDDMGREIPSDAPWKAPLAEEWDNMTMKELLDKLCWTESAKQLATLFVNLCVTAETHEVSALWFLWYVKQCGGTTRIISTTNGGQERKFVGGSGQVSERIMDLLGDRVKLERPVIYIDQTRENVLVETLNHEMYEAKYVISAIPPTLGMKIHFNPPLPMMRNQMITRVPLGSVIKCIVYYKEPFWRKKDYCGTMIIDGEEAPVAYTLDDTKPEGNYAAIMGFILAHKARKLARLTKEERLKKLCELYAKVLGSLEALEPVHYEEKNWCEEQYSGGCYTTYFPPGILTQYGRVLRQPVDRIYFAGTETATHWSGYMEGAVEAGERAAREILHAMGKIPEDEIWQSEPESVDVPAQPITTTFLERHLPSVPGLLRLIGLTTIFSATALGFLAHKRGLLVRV
Experiment summary: Inhibition of human MAO-B incubated for 30 mins by Amplex Red assay

Structure notation: COc1ccc2sc(SC(=O)N/N=C\c3csc([N+](=O)[O-])c3)nc2c1
IC50: 60 nM

###

Measurement target: Amine oxidase [flavin-containing] A (Homo sapiens, UniProt P21397)
pIC50: −log10 of the molar value.

Structure notation: COc1ccc2nc(C(=O)NC3CCCCC3)sc2c1
pIC50: 5.42

###

Measurement target: UniProt:P21397
Sequence (P21397 whole entry): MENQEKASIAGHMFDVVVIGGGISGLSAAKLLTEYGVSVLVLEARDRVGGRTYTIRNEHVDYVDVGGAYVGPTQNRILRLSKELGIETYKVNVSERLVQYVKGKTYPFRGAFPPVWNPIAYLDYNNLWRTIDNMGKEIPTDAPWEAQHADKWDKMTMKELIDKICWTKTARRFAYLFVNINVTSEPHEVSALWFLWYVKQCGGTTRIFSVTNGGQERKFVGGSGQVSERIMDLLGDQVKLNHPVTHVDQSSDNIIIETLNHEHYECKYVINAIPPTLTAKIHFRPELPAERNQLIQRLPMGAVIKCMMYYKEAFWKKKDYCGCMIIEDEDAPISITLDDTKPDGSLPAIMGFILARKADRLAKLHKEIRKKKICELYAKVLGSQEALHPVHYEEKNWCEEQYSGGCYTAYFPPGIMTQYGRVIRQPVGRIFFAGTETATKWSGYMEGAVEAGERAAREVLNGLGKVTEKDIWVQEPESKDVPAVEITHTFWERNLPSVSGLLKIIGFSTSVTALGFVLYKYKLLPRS
Experiment summary: Inhibition of recombinant human MAO-A expressed in baculovirus infected insect cells using kynuramine as substrate at 10 uM by fluorescence based method relative to control
Condition info: Insect cell
In this section, each of the compounds is paired with its reported inhibition at 10 µM.

Structure notation: O=C(NCc1ccc([N+](=O)[O-])cc1)c1nc2ccc(O)cc2s1
Result operator: =
inhibition at 10 µM (%): 15
--
Structure notation: COc1ccccc1CNC(=O)c1nc2ccc(O)cc2s1
Result operator: =
inhibition at 10 µM (%): 25
--
Structure notation: O=C(NCc1ccccc1F)c1nc2ccc(O)cc2s1
Result operator: =
inhibition at 10 µM (%): 16
--
Structure notation: O=C(NCC#Cc1ccccc1)c1nc2ccc(O)cc2s1
Result operator: =
inhibition at 10 µM (%): 59
--
Structure notation: Cc1ccc(CNC(=O)c2nc3ccc(O)cc3s2)cc1
Result operator: =
inhibition at 10 µM (%): 22
--
Structure notation: O=C(NCc1cccc(Cl)c1)c1nc2ccc(O)cc2s1
Result operator: =
inhibition at 10 µM (%): 28
--
Structure notation: O=C(NCc1ccc(-c2cccs2)cc1)c1nc2ccc(O)cc2s1
Result operator: =
inhibition at 10 µM (%): 18
--
Structure notation: O=C(NCc1cccc(F)c1)c1nc2ccc(O)cc2s1
Result operator: =
inhibition at 10 µM (%): 8
--
Structure notation: O=C(NCc1cccc(F)c1F)c1nc2ccc(O)cc2s1
Result operator: =
inhibition at 10 µM (%): 19
--
Structure notation: COc1ccc(CNC(=O)c2nc3ccc(O)cc3s2)cc1
Result operator: =
inhibition at 10 µM (%): 22
--
Structure notation: COc1ccc2nc(C(=O)NC3CCCCC3)sc2c1
Result operator: >
inhibition at 10 µM (%): 60
--
Structure notation: CC(C)(C)c1ccc(CNC(=O)c2nc3ccc(O)cc3s2)cc1
Result operator: =
inhibition at 10 µM (%): 19
